Test system: Mycolicibacterium fortuitum
Test: Antibacterial activity against Mycobacterium fortuitum NCTC 10394 strain; na = not active
Format: functional, organism-based
Calls of active or inactive are those of the source. No cut-off for these calls is given here.
measure.name: MIC

See these solved cases before continuing.
{"structure": "CC(C)n1cc(NC(=O)c2cc(NC=O)cn2C)cc1C(=O)Nc1cc(C(=O)NCCCN(C)C)n(C)c1", "measured.target": "Mycolicibacterium fortuitum", "MIC": "inactive"}
{"structure": "Cc1oc(CNC(=O)c2cc(NC(=O)c3cc(NC=O)cn3C)cn2C)nc1C(=O)NCCCN(C)C", "measured.target": "Mycolicibacterium fortuitum", "MIC": "inactive"}
{"structure": "CCn1cc(NC(=O)c2nc(NC(=O)c3nc(NC=O)cn3CC)cn2CC)nc1C(=O)NCCCN(C)C", "measured.target": "Mycolicibacterium fortuitum", "MIC": "inactive"}
{"structure": "CC(C)n1cc(NC(=O)c2cc(NC(=O)c3cc(NC=O)cn3C(C)C)cn2C)cc1C(=O)NCCCN(C)C", "measured.target": "Mycolicibacterium fortuitum", "MIC": "inactive"}

### Prompt Recorded MIC for CC(=O)Nc1cc(C(=O)Nc2cc(C(=O)Nc3nc(C(=O)NCCCN(C)C)c(C(C)C)s3)n(C)c2)n(C)c1 , please?
### Response inactive

### Prompt Look up MIC: CC(C)CCn1cc(NC(=O)c2cc(NC=O)cn2C)cc1C(=O)Nc1cc(C(=O)NCCCN2CCOCC2)n(C)c1
### Response inactive

### Prompt May I ask what MIC has been recorded for CN(C)CCCNC(=O)c1cc(NC(=O)c2cc(NC(=O)c3cc(NC=O)cn3C)cn2C)cn1C ?
### Response inactive

### Prompt Which measured MIC value corresponds to CC(=O)Nc1cc(C(=O)Nc2cc(C(=O)Nc3cc(C(=O)NCCCN(C)C)n(C)c3)n(C(C)C)c2)n(C)c1 ?
### Response inactive

### Prompt Query: MIC; subject: CC(C)n1cc(NC(=O)c2cc(NC=O)cn2C)cc1C(=O)Nc1cc(C(=O)NCCCN2CCOCC2)n(C)c1
### Response inactive

### Prompt Query (compound): CC(=O)Nc1cc(C(=O)Nc2cc(C(=O)Nc3cc(C(=O)NCCCN(C)C)n(C)c3)n(C)c2)c(C)s1 ; field requested: MIC
### Response inactive

### Prompt // lookup MIC for Cc1sc(NC=O)cc1C(=O)Nc1cc(C(=O)Nc2cc(C(=O)NCCCN(C)C)n(C)c2)n(C)c1
### Response inactive

---

# MIC listing for each entry below
Test system: Aspergillus niger
Assay: Antifungal activity against Aspergillus niger IMI17454 strain.
Type: functional
Settings: Aspergillus niger; read-out: MIC
Report as a plain number; the unit µM is understood.

For orientation, consider the following solved cases.
{"structure": "CC(=O)Nc1cc(C(=O)Nc2cc(C(=O)Nc3cc(C(=O)NCCCN(C)C)n(C)c3)c(C)s2)n(C)c1", "measure.name": "MIC", "scale.unit": "µM", "quantitative.readout": 156}
{"structure": "CC(C)n1cc(NC(=O)c2cc(NCc3ccccc3)cn2C)cc1C(=O)Nc1cc(C(=O)NCCCN(C)C)n(C)c1", "measure.name": "MIC", "scale.unit": "µM", "quantitative.readout": 147}
{"structure": "CC(C)n1cc(NC(=O)c2cc(NC=O)cn2C)cc1C(=O)Nc1cc(C(=O)NCCCN(C)C)n(C)c1", "measure.name": "MIC", "scale.unit": "µM", "quantitative.readout": 157}
{"structure": "Cc1sc(NC(=O)c2cc(NC=O)cn2C)cc1C(=O)Nc1cc(C(=O)NCCCN(C)C)n(C)c1", "measure.name": "MIC", "scale.unit": "µM", "quantitative.readout": 159}
{"structure": "CC(=O)Nc1cc(C(=O)Nc2cc(C(=O)Nc3cc(C(=O)NCCCN4CCCC4)n(C)c3)n(C)c2)n(C)c1", "measure.name": "MIC", "scale.unit": "µM", "quantitative.readout": 153}

### Prompt # value lookup — system Aspergillus niger, readout MIC, item COc1cccc(C(=O)Nc2nc(C(=O)Nc3cc(C(=O)Nc4cc(C(=O)NCCCN(C)C)n(C)c4)n(C)c3)c(C(C)C)s2)c1
### Response 131
